tested on: F1 hybrid maize plants; test: efficacy field trial for 2,4-D tolerance; format: in vivo; settings: scale 0 to 100; 2 lb ae/acre at VE-V2, V4, V8; with CTP unless label says no CTP
measure: average injury rating, V8 Growth Stage, 2x 2,4-D

# molecule, result_number
rows = [
    ("MON-HT5: engineered oxygenase protein, amino acid sequence SEQ ID NO:28 (protein) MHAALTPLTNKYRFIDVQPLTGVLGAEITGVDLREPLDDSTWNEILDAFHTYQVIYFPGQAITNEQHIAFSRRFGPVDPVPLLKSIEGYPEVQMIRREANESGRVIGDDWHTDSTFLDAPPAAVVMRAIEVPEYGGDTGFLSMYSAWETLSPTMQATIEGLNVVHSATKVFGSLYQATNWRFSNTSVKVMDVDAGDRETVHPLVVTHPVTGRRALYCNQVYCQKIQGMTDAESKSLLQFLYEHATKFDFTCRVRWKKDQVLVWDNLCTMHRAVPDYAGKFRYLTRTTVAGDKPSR", 3.3),
    ("MON-HT2: engineered oxygenase protein, amino acid sequence SEQ ID NO:18 (protein) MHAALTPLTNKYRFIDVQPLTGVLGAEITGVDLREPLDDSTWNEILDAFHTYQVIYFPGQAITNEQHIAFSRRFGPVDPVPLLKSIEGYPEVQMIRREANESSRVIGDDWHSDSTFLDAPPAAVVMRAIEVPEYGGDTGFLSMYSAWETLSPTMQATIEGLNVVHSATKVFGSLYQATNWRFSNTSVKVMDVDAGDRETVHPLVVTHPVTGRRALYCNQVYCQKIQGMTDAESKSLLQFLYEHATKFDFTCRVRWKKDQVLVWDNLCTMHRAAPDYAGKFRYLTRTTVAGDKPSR", 2.5),
]
